# System: P. falciparum 3D7 trophozoites
# MEASUREMENT NOTES: Metabolomic fingerprint profiling LC-MS
# Type: cell-based, Plasmodium falciparum
# ASSAY CONDITIONS: S2 Table Metabolomics; peptide DLH
Measured DLH of individual entries

COMPOUND: Cc1cc(Nc2ccc(C)c(Cl)c2)n2nc(C(F)(F)F)nc2n1 [MMV665874]
ASSAY TARGET: P. falciparum 3D7 trophozoites
DLH: -0.1943
//
COMPOUND: COc1ccc2c(=O)cc(C(Cl)(Cl)Cl)oc2c1 [MMV665820]
ASSAY TARGET: P. falciparum 3D7 trophozoites
DLH: -2.464
//
COMPOUND: CN(C)c1ccc(C(O)(c2ccc(N(C)C)cc2)c2ccc(N(C)C)cc2)cc1 [MMV665941]
ASSAY TARGET: P. falciparum 3D7 trophozoites
DLH: -0.3436
//
COMPOUND: CCc1c(C)c(=N)c2ccccc2n1C [MMV006278]
ASSAY TARGET: P. falciparum 3D7 trophozoites
DLH: 0.1151
//
COMPOUND: COc1ccc(-c2nc3cc(Cc4ccc5[nH]c(-c6ccc(OC)cc6)nc5c4)ccc3[nH]2)cc1 [MMV007384]
ASSAY TARGET: P. falciparum 3D7 trophozoites
DLH: -1.971
//
COMPOUND: COc1ccc(-c2c(C)nn3c(N)c(C#N)cnc23)cc1OC [MMV396797]
ASSAY TARGET: P. falciparum 3D7 trophozoites
DLH: -2.487

* * *

# Test system: P. falciparum 3D7 trophozoites
# MEASUREMENT NOTES: Metabolomic fingerprint profiling LC-MS
# Type: cell-based, Plasmodium falciparum
# ASSAY CONDITIONS: metabolite NADP+, S2 Table Metabolomics

MOLECULE: CCC(c1ccccc1)c1nn2c(-c3cccs3)nnc2s1 (centres unmarked) [MMV665876]
ASSAY TARGET: P. falciparum 3D7 trophozoites
NADP+: -0.2262
//
MOLECULE: COc1ccc(C(=O)Nc2nonc2-c2ccc(OC)c(OC)c2)cc1Cl [MMV011567]
ASSAY TARGET: P. falciparum 3D7 trophozoites
NADP+: -0.4288
//
MOLECULE: Cc1ccc(Nc2nc(NCCO)c3ccccc3n2)cc1C [MMV001038]
ASSAY TARGET: P. falciparum 3D7 trophozoites
NADP+: 1.018
//
MOLECULE: c1ccc(Cn2c(N=Nc3c(Nc4ccccc4)ccc4ccccc34)nc3ccccc32)cc1 [MMV666023]
ASSAY TARGET: P. falciparum 3D7 trophozoites
NADP+: -0.009365
//
MOLECULE: CC1CCN(Cc2ccc(NC(=O)c3cc4ccc5cccnc5c4[nH]3)cc2)CC1 [MMV020549]
ASSAY TARGET: P. falciparum 3D7 trophozoites
NADP+: 0.1203
//
MOLECULE: Oc1ccccc1CNCC12CC3CC(CC(C3)C1)C2 [MMV020788]
ASSAY TARGET: P. falciparum 3D7 trophozoites
NADP+: -0.008021
//
MOLECULE: CN(C)c1ccc(C=Cc2nc(=O)c3ccccc3o2)cc1 [MMV006309]
ASSAY TARGET: P. falciparum 3D7 trophozoites
NADP+: 0.05923
//
MOLECULE: Cc1cc(NCCN2CCCCC2)c2ccc3ccccc3c2n1 [MMV006203]
ASSAY TARGET: P. falciparum 3D7 trophozoites
NADP+: 0.01586
//
MOLECULE: COc1ccc(C(C)=O)cc1N1C(=O)C2C(C1=O)C1(c3ccccc3)C(=O)C2(c2ccccc2)C(c2ccc(C)cc2)=C1c1ccc(C)cc1 (centres unmarked) [MMV007695]
ASSAY TARGET: P. falciparum 3D7 trophozoites
NADP+: 0.5403
//
MOLECULE: O=C(CSc1nccn2nc(-c3ccccc3)cc12)Nc1cc(C(F)(F)F)ccc1Cl [MMV396678]
ASSAY TARGET: P. falciparum 3D7 trophozoites
NADP+: -0.09002
//
MOLECULE: CCC1(C)CC(CCNCc2ccccc2O)(c2ccc(C)cc2)CCO1 (centres unmarked) [MMV019406]
ASSAY TARGET: P. falciparum 3D7 trophozoites
NADP+: -0.1427
//
MOLECULE: COc1ccc2c(c1)OC(O)(C(F)(F)C(F)(F)F)CC2=O (centres unmarked) [MMV007839]
ASSAY TARGET: P. falciparum 3D7 trophozoites
NADP+: -0.2719
//
MOLECULE: Cc1cccc(Nc2nc(N)c3ccccc3n2)c1 [MMV019110]
ASSAY TARGET: P. falciparum 3D7 trophozoites
NADP+: 0.1589
//
MOLECULE: CCOC(=O)c1c(C)n(-c2ccc(Cl)cc2)c2ccc(OC(=O)C=Cc3ccccc3)cc12 [MMV666600]
ASSAY TARGET: P. falciparum 3D7 trophozoites
NADP+: 0.2752
//
MOLECULE: Cc1cc(Nc2ccc3ccccc3c2)n2ncnc2n1 [MMV011099]
ASSAY TARGET: P. falciparum 3D7 trophozoites
NADP+: 0.1353
//
MOLECULE: CCOC(=O)C1=C(c2ccccc2)N=c2sc(=Cc3cc(C)n(-c4ccc(F)cc4)c3C)c(=O)n2C1c1cccc(OC)c1OC (centres unmarked) [MMV666601]
ASSAY TARGET: P. falciparum 3D7 trophozoites
NADP+: -0.07076
//
MOLECULE: COc1ccccc1N=C1C(=O)c2ccccc2C(O)=C1N1CCCCC1 [MMV085203]
ASSAY TARGET: P. falciparum 3D7 trophozoites
NADP+: 0.08883
//
MOLECULE: Cc1ccc(-c2cc3c(SCC(=O)Nc4cc(C(F)(F)F)ccc4Cl)nccn3n2)cc1 [MMV396680]
ASSAY TARGET: P. falciparum 3D7 trophozoites
NADP+: -0.1345
//
MOLECULE: CN(C)CCCNc1c2ccccc2nc2ccccc12 [MMV000448]
ASSAY TARGET: P. falciparum 3D7 trophozoites
NADP+: 0.3266
//
MOLECULE: Cc1cc(Nc2ccc(C)c(Cl)c2)n2nc(C(F)(F)F)nc2n1 [MMV665874]
ASSAY TARGET: P. falciparum 3D7 trophozoites
NADP+: -0.1197
//
MOLECULE: CCc1c(C)c(=N)c2ccccc2n1C [MMV006278]
ASSAY TARGET: P. falciparum 3D7 trophozoites
NADP+: -0.2182
//
MOLECULE: CCOc1ccc(-c2nonc2NC(=O)c2cccc(C)c2)cc1OCC [MMV665805]
ASSAY TARGET: P. falciparum 3D7 trophozoites
NADP+: 0.09325
//
MOLECULE: CCCc1c(CC)c(=N)c2ccccc2n1C [MMV008416]
ASSAY TARGET: P. falciparum 3D7 trophozoites
NADP+: 0.7628

* * *

# Tested on: P. falciparum 3D7 trophozoites
# MEASUREMENT NOTES: Metabolomic fingerprint profiling LC-MS
# Assay type: cell-based, Plasmodium falciparum
# ASSAY CONDITIONS: metabolite succinate/methylmalonic acid; S2 Table Metabolomics, change in metabolite level after compound treatment
ASSAY ENDPOINT: succinate/methylmalonic acid

COMPOUND: CSc1ccccc1C(=O)Nc1nc(-c2ccccn2)cs1
ASSAY ENDPOINT: succinate/methylmalonic acid
ENDPOINT RESULT: 0.009107

COMPOUND: Cc1cc(NC(=O)C2c3ccccc3C(=O)N(CC(C)C)C2c2cccs2)no1 (centres unmarked)
ASSAY ENDPOINT: succinate/methylmalonic acid
ENDPOINT RESULT: 0.2625

COMPOUND: Cc1ccc(-c2cc3nc4c(c(O)n3n2)CCCC4)cc1
ASSAY ENDPOINT: succinate/methylmalonic acid
ENDPOINT RESULT: -0.2134

COMPOUND: CCOC(=O)c1cnc2ccc(CC)cc2c1O
ASSAY ENDPOINT: succinate/methylmalonic acid
ENDPOINT RESULT: 0.07837

COMPOUND: Cc1cc(Nc2ccc(C)c(Cl)c2)n2nc(C(F)(F)F)nc2n1
ASSAY ENDPOINT: succinate/methylmalonic acid
ENDPOINT RESULT: -1.091

* * *

# Test system: P. falciparum 3D7 trophozoites
# MEASUREMENT NOTES: Metabolomic fingerprint profiling LC-MS
# Assay type: cell-based, Plasmodium falciparum
# ASSAY CONDITIONS: metabolite ribose-phosphate, S2 Table Metabolomics
Mark t only when ribose-phosphate stays strictly below -0.05. Values equal to the cut-off are f.

COMPOUND: CCN(CC)CCNc1ccnc2cc(Cl)ccc12
CLASS LABEL: t
--
COMPOUND: Cc1ccc(-c2cc3c(SCC(=O)Nc4cc(C(F)(F)F)ccc4Cl)nccn3n2)cc1
CLASS LABEL: f
--
COMPOUND: COc1ccc(C(C)=O)cc1N1C(=O)C2C(C1=O)C1(c3ccccc3)C(=O)C2(c2ccccc2)C(c2ccc(C)cc2)=C1c1ccc(C)cc1 (stereo not drawn)
CLASS LABEL: f
--
COMPOUND: Oc1ccccc1CNCC12CC3CC(CC(C3)C1)C2
CLASS LABEL: f
--
COMPOUND: Cc1cc(C)c2c(c1)OCN(Cc1ccccc1Cl)C2
CLASS LABEL: t
--
COMPOUND: COc1ccc(-c2nc(NC(=O)CS(=O)(=O)c3ccc(F)cc3)sc2C)cc1
CLASS LABEL: t

The origin of these recorded values is paper PMC4965013.
